- STUDY TARGET: T1, human FAP (Homo sapiens, UniProt Q12884)
- T1 sequence (Q12884 1-760): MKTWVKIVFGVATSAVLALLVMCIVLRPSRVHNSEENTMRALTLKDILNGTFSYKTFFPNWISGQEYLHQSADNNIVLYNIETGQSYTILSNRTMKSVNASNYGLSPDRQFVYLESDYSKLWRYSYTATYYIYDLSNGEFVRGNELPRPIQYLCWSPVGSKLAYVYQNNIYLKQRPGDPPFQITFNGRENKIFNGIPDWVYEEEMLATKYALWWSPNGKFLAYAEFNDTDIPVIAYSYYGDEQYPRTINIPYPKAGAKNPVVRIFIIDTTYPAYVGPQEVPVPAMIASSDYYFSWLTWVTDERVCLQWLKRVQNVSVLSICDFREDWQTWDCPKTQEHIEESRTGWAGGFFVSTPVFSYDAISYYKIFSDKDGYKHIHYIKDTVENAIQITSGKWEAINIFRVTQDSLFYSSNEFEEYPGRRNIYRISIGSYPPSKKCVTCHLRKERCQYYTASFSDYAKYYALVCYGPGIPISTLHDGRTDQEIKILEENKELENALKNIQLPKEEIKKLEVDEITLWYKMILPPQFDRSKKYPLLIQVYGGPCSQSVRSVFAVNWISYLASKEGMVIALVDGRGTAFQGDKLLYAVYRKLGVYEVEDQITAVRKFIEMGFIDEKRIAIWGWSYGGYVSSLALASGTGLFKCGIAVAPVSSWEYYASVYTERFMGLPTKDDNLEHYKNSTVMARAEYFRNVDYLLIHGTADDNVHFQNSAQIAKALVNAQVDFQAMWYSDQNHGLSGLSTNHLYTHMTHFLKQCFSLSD
- ASSAY TEXT: BLI click reaction with Tz-R3B23 on TCO-VHHs bound to target, span (Example 7, Table 18)
- CONDITION LABEL: Experiment 2, 2nd assay, click reaction with 50 nM Tz-R3B23 for 30 minutes, signal difference vs assay buffer
Classify: 1 (yes) when Span is strictly less than 0.02; 0 (no) when Span is not.

MOLECULE	GROUP LABEL
TCO-VHH8 (conjugate, cyclised or stapled) VHH: QVQLQESGGGTVQPGGSLRLSCAASGISVSIASMAWYRQAPGKQRELVAGIISGGSTNYADSVKGRFTISRDNAKKVVLLQMNSLKPEDTAVYYCNTYPPFVGPGATATWGQGTQVTVSSAAAYPYDVPDYGSHHHHHH	0 (no)
TCO-VHH7 (conjugate, cyclised or stapled) VHH: QVQLQESGGGLVQAGGSLRLSCTASGTFSGRNAMAWYRQAPGKRRELVAGIRSDDSTNYVDSVKGRFTISRDNAKNTVYLQMNSLRPEDTAVYYCNLWPPVIGAGFGSWGQGTQVTVSSAAAYPYDVPDYGSHHHHHH	0 (no)
TCO-VHH1: VHH1, functionalized with transcyclooctene (TCO) (conjugate, cyclised or stapled) VHH: DVQLVESGGGLVQPGGSLRLSCVASGRLSSSNSMAWYRQVPGKRRELVAGITGGGETNYADFVGGRFTISRDNAKNGLYLQLNGLKPEDTAAYYCNFWPPLINYWGQGTQVTVSS	0 (no)

API: query returns whether the molecule falls strictly under 0.02 in Span. Query: TCO-VHH9: TCO conjugated VHH9 (FAP binding) (conjugate, cyclised or stapled) VHH: QVQLQESGGGLVQSGGSLRLSCVASGSISSINAMGWYRQAPGNKREWVAGITSGGSTNYADAVLGRFSIFRDNPKNTVYLQMNSLKPEDTAVYYCNTWPPSTFGSWGQGTQVTVSSAAAYPYDVPDYGSHHHHHH
1 (yes)

Ok, now TCO-VHH6 (VHH, trans-cyclooctene (TCO) conjugated via TCO-NHS; site(s) and number not stated, also called TCO conjugated VHH6; VHH6 post conjugation) VHH: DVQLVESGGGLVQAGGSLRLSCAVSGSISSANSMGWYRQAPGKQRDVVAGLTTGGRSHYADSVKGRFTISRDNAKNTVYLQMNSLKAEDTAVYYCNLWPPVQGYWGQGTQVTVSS
0 (no)
